The reported numbers originate from the supplement of paper PMC9170038.

# System: MS2 coat protein
# protocol: apparent KD of MS2 coat protein; designed switch direction (-1 OFF switch, 1 ON switch): 1; higher = weaker reporter binding
# condition-description: input ligand: microRNA oligo, concentration not stated
quantity-measured: apparent KD of MS2 coat protein (nM)
Value expressed in nM; do not type the unit.

Lab note: need apparent KD of MS2 coat protein with MS2 coat protein for entry UUUGCAUUGCAAGGAUAUUGAUAACAUGAGGAUCACCCAUGUAUAGGUUCAGGAUUUACGAGUAACAAGAAGGUGCUAUUGUUU [JR_SSNG2_Sub040] (Eterna round: R96, puzzle: Same State NG 2) , please look it up.
20.7

Test system MS2 coat protein; read-out apparent KD of MS2 coat protein; what value for GUGGUCAGACAUGAGGAUCACCCAUGUGGAAUAAAUAAGGGACAGGAUAUUCAAUAUAGGAUAUAGAAGAAGGGUUGGUUGGUG (Eterna round: R96, puzzle: Same State NG 3) ?
104

Recorded apparent KD of MS2 coat protein for GGUAGGUUACUACCAAUCACAUGAGGAUCACCCAUGUUUUGGGAGGAUAUGGUACCUAUUUGGUACCAGAAGGCCUUAUUAAUU [Fiskers NG3ss - 12] (Eterna round: R96, puzzle: Same State NG 3) with MS2 coat protein, please?
36.2
